Target: Neu5Ac(a2-3)Gal(b1-3)GlcNAc(b1-6)GalNAc
Assay: glycan array binding signal (z-score within array); higher = stronger binding
Details: glycan notation: IUPAC condensed, linker removed
Many of the other results were omitted from the sample, so the strongest signals are more common in it than they were.
1 means recorded glycan array binding signal (z-score) is -0.2 or above; 0 means it is below -0.2.

-- ask Decide: glycan array binding signal (z-score) of DC-ASGPR S+GEE (Homo sapiens) (protein) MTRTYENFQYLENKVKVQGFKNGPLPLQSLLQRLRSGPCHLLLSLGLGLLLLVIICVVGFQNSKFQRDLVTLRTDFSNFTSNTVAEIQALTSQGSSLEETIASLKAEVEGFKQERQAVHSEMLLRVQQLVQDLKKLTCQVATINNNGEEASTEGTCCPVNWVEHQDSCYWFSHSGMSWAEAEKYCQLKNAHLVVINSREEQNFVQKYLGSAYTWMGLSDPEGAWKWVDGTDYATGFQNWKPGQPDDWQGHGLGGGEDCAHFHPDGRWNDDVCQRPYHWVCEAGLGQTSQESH >= -0.2?
-- reply 1

-- ask Decide: glycan array binding signal (z-score) of HHA (Hippeastrum hybrid) (protein) MQQDCNLVLYDVDKPIWASNTGGLARDCHLNMQSDGNLVVYAPRNQVIWASNTQGENGNYVCILQKDRNVVIYGTARWATGTNIHGAGIVGVPGSAPQNTTAEMIKLVRKYLITK >= -0.2?
-- reply 0

-- ask Decide: glycan array binding signal (z-score) of Intelectin-1a (Mus musculus) (protein) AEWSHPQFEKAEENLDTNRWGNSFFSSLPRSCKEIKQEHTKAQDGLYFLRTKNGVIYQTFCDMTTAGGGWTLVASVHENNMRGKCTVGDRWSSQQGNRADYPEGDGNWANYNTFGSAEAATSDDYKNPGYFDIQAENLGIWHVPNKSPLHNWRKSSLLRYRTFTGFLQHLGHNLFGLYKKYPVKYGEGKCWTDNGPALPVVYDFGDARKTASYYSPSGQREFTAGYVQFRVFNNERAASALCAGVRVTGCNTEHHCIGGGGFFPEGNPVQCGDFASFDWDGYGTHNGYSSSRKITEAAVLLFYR >= -0.2?
-- reply 1

-- ask Decide: glycan array binding signal (z-score) of MXA PilAct-eGFP (Myxococcus xanthus), Q59589 (protein) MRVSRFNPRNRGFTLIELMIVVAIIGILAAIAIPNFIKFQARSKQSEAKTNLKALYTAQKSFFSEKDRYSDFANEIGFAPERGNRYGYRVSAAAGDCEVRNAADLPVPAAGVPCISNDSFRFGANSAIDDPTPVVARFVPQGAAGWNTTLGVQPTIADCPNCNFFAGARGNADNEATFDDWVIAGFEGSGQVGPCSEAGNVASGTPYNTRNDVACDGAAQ >= -0.2?
-- reply 0

-- ask Decide: glycan array binding signal (z-score) of XTP3-B-MRH1 (Homo sapiens), Q96DZ1 (protein) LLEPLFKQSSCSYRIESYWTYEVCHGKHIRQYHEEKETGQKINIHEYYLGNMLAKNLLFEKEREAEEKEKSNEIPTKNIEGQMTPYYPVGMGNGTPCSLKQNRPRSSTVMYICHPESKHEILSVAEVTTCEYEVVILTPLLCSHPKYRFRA >= -0.2?
-- reply 0
